# ASSAYED_SYSTEM: beta-catenin/TCF4 engagement (Homo sapiens, UniProt P35222)
# Construct: expressed in transfected cells; host or cells: HEK293
# Sequence (P35222 whole entry): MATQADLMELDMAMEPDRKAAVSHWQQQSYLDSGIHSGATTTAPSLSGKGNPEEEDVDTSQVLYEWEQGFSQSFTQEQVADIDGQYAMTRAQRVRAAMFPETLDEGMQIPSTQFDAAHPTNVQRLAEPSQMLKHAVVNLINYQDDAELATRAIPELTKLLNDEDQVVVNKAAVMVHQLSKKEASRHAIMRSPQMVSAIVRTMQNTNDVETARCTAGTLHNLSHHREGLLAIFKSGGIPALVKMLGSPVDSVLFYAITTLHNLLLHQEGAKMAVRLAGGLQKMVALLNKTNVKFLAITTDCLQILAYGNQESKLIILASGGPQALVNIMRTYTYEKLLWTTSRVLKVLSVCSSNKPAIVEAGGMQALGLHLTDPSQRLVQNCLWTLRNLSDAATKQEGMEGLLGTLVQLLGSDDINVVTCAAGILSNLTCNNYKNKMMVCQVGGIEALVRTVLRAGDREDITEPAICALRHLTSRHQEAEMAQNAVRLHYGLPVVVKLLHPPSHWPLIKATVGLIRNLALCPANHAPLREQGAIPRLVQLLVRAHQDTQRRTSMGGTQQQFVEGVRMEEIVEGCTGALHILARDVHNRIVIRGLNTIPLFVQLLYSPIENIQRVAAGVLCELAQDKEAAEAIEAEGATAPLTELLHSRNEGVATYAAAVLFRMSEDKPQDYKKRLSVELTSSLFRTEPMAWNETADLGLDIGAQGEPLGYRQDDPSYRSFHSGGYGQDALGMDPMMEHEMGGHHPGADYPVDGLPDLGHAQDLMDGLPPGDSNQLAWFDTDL
# TEST_PROTOCOL: Nano-BRET target engagement assay (B-cat-Halo & TCF4-Luc in HEK293 cells)
# Format: cell-based
# CONDITIONS: absolute IC50; read-out: NanoBRET Abs IC50
MEASUREMENT_TYPE: IC50 (µM)
Express the result in µM but write the number alone.

INSERT INTO results (compound, value_measured) VALUES
  ('CC(=O)N1CCC[C@]12CC=CCCCC1(CCCC=CCCCOC(=O)N3CC[C@@](C(=O)N[C@@H](Cc4ccsc4)C(=O)N[C@@H](Cc4csc5ccccc45)C(=O)N[C@H](CO)[C@@H](C)O)(C3)NC(=O)[C@H](Cc3ccccc3)NC(=O)[C@H](Cc3ccccc3)NC(=O)[C@H](C)NC(=O)[C@H](C)NC(=O)[C@H](Cc3ccccc3C(=O)O)NC(=O)[C@H](CC(=O)O)NC1=O)NC(=O)[C@H](CC(C)(C)C)NC(=O)[C@H](CC(=O)O)NC2=O (single isomer, unassigned) [I-1668]', 16.4);

We now examine a further compound.
// IC50 value for CC(=O)N1CCC[C@]12CC=CCCCC1(CCCC=CCCCOC(=O)N3CC[C@@](C(=O)N[C@@H](Cc4ccsc4)C(=O)N[C@@H](Cc4csc5ccccc45)C(=O)N[C@@H](CC(N)=O)C(=O)N[C@@H](C)C(=O)NC(C)(C)C(=O)N[C@@H](C)C(=O)NC(C)(C)C(=O)N[C@@H](C)C(N)=O)(C3)NC(=O)[C@H](CC(C)C)NC(=O)[C@H](Cc3ccccc3)NC(=O)[C@H](C)NC(=O)[C@H](C)NC(=O)[C@H](Cc3cccc(C(=O)O)c3)NC(=O)[C@H](CC(=O)O)NC1=O)NC(=O)[C@H](CC(C)(C)C)NC(=O)[C@H](CC(=O)O)NC2=O (some centres unmarked) [I-2272] : 3
